Test: Cytotoxicity against mouse RAW264.7 cells assessed as cell survival at 5 uM
Type: cell-based
Conditions: read-out: Activity
Value Type: viability at 5 µM (%)

1. C=C[C@]1(C)C=C2C[C@@H](O)[C@H]3C(C)(C)[C@H](O)C[C@H](O)[C@]3(C)[C@H]2CC1 ... 104
2. C=C[C@]1(C)C=C2[C@H](OC(C)=O)[C@@H](O)[C@H]3C(C)(C)CCC[C@]3(C)[C@H]2CC1 ... 100
3. C=C[C@]1(C)C=C2[C@H](OC(C)=O)C[C@H]3C(C)(C)CCC[C@]3(C)[C@@]2(O)CC1 ... 71.5
4. C=C[C@]1(C)C=C2CC[C@H]3C(C)(C)[C@H](O)C[C@H](O)[C@]3(C)[C@H]2CC1 ... 104

* * *

Tested on: RAW264.7
Test: Anti-inflammatory activity in mouse RAW264.7 cells assessed as inhibition of LPS-induced NO production at 10 uM relative to control
Type: functional
Recorded inhibition at 10 µM for the following molecules
Value Type: inhibition at 10 µM (%)

1) C=C[C@]1(C)C=C2C[C@@H](O)[C@H]3C(C)(C)CCC[C@]3(C)[C@H]2CC1 ... 3.82
2) C=C[C@]1(C)C=C2CC[C@H]3C(C)(C)CC[C@H](O)[C@]3(C)[C@H]2CC1 ... 14
3) C=C[C@]1(C)C=C2C(=O)C[C@H]3C(C)(C)CCC[C@]3(C)[C@@]2(O)CC1 ... 32.5
4) C=C[C@]1(C)C=C2[C@H](O)C[C@H]3C(C)(C)CCC[C@]3(C)[C@H]2CC1 ... 14.4
5) C=C[C@]1(C)C=C2CC[C@H]3C(C)(C)CC[C@H](O)[C@]3(C)[C@H]2[C@H](O)C1 ... 6.28
6) C=C[C@]1(C)C=C2C[C@@H](O)[C@H]3C(C)(C)CC[C@H](OC(C)=O)[C@]3(C)[C@H]2CC1 ... 9.55

* * *

Test system: RAW264.7
Assay: Anti-inflammatory activity in mouse RAW264.7 cells assessed as inhibition of LPS-induced NO production at 100 uM relative to control
Format: functional
Attribute: inhibition at 100 µM
Value Type: inhibition at 100 µM (%)

1) C=C[C@]1(C)C=C2CC[C@H]3C(C)(C)C[C@H](O)[C@H](O)[C@]3(C)[C@H]2CC1 ... 49.2
2) CNC(=N)NCCC[C@H](N)C(=O)O [TILARGININE ACETATE] ... 58.2
3) C=C[C@]1(C)C=C2C(=O)C[C@H]3C(C)(C)CCC[C@]3(C)[C@@]2(O)CC1 ... 41.6
4) C=C[C@]1(C)C=C2[C@H](O)C[C@H]3C(C)(C)CCC[C@]3(C)[C@H]2CC1 ... 67.6
5) C=C[C@]1(C)C=C2CC[C@H]3C(C)(C)CC[C@H](O)[C@]3(C)[C@H]2CC1 ... 80.5
6) C=C[C@]1(C)C=C2CC[C@H]3C(C)(C)CC[C@H](O)[C@]3(C)[C@H]2[C@H](O)C1 ... 50.4
7) C=C[C@]1(C)C=C2CC[C@H]3C(C)(C)[C@H](O)C[C@H](O)[C@]3(C)[C@H]2CC1 ... 33.8
8) C=C[C@]1(C)C=C2C[C@@H](O)[C@H]3C(C)(C)CCC[C@]3(C)[C@H]2CC1 ... 81.7
9) C=C[C@]1(C)C=C2[C@H](OC(C)=O)C[C@H]3C(C)(C)CCC[C@]3(C)[C@@]2(O)CC1 ... 80.5
10) C=C[C@]1(C)C=C2[C@@H](O)[C@@H](O)[C@H]3C(C)(C)CCC[C@]3(C)[C@@]2(O)CC1 ... 60.4
11) C=C[C@]1(C)C=C2C[C@@H](O)[C@H]3C(C)(C)CCC[C@]3(C)[C@@]2(OC)CC1 ... 74.2
12) C=C[C@]1(C)C=C2CC[C@H]3C(C)(C)C[C@H](O)[C@H](O)[C@]3(C)[C@@]2(O)CC1 ... 20.8
13) C=C[C@]1(C)C=C2C(=O)C[C@H]3C(C)(C)CC[C@H](O)[C@]3(C)[C@H]2CC1 ... 35.5
14) C=C[C@]1(C)C=C2C[C@@H](O)[C@H]3C(C)(C)[C@H](O)C[C@H](O)[C@]3(C)[C@H]2CC1 ... 24.1
